test system: A549; experiment: Growth inhibition of human A549 cells at 100 uM after 48 hrs by sulforhodamine B assay; assay type: functional; settings: A549, 48 h, read-out: GI
Response key: True means inhibition of growth at 100 µM >= 70%; False means inhibition of growth at 100 µM < 70%.

Task: Assess whether reported inhibition of growth at 100 µM for O=c1c(C2N=C(c3ccccc3)SS2)coc2ccc(Cl)cc12 (stereo not given) sits at 70% or higher.
Output: True

Task: Assess whether reported inhibition of growth at 100 µM for O=c1c(C2N=C(c3ccccc3)SS2)coc2cc(Cl)ccc12 (stereo not given) sits at 70% or higher.
Output: True

Task: Assess whether reported inhibition of growth at 100 µM for O=c1c(C2N=C(c3ccccc3)SS2)coc2cc(Cl)c(Cl)cc12 (stereo not given) sits at 70% or higher.
Output: False

Task: Assess whether reported inhibition of growth at 100 µM for `O=c1c(C(=S)Nc2ccccc2)coc2cc(Cl)c(Cl)cc12` sits at 70% or higher.
Output: False

* * *

Let's look at some compounds and their measured inhibition of growth at 100 µM.
test system: A549; test: Growth inhibition of human A549 cells at 100 uM after 48 hrs by sulforhodamine B assay; assay type: functional; details: A549, 48 h, read-out: GI
Express the result in % but write the number alone.

Below, 3 compounds whose answers are already recorded.
>  <COMPOUND>
Cc1ccc2occ(C3N=C(c4ccccc4)SS3)c(=O)c2c1 (stereo unspecified)

>  <MEASUREMENT_TARGET>
A549

>  <inhibition of growth at 100 µM [%]>
67

$$$$
>  <COMPOUND>
O=c1c(C2N=C(c3ccccc3)SS2)coc2ccccc12 (stereo unspecified)

>  <MEASUREMENT_TARGET>
A549

>  <inhibition of growth at 100 µM [%]>
42

$$$$
>  <COMPOUND>
O=c1c(C(=S)Nc2ccccc2)coc2ccccc12

>  <MEASUREMENT_TARGET>
A549

>  <inhibition of growth at 100 µM [%]>
79

$$$$

Task: Can you share its inhibition of growth at 100 µM? I mean this compound: O=c1c(C2N=C(c3ccccc3)SS2)coc2ccc(F)cc12 (stereo unspecified)
Output: 55

Task: Can you share its inhibition of growth at 100 µM? I mean this compound: `O=c1c(C(=S)Nc2ccccc2)coc2cc(Cl)ccc12`
Output: 66

Task: Can you share its inhibition of growth at 100 µM? I mean this compound: O=c1c(C2N=C(c3ccccc3)SS2)coc2cc(Cl)c(F)cc12 (stereo unspecified)
Output: 57

* * *

system: OVCAR-5 (human); experiment: Growth inhibition of human OVCAR-5 cells at 100 uM after 48 hrs by sulforhodamine B assay; conditions: OVCAR-5, 48 h, read-out: GI
Let's look at some compounds and their measured inhibition of growth at 100 µM.

Below, 2 compounds whose answers are already recorded.
>  <COMPOUND>
O=c1c(C2N=C(c3ccccc3)SS2)coc2ccccc12 (stereo unspecified)

>  <REPORTED_ENDPOINT>
inhibition of growth at 100 µM

>  <RESULT>
11%

$$$$
>  <COMPOUND>
Cc1ccc2occ(C3N=C(c4ccccc4)SS3)c(=O)c2c1 (stereo unspecified)

>  <REPORTED_ENDPOINT>
inhibition of growth at 100 µM

>  <RESULT>
54%

$$$$

Task: Can you share its inhibition of growth at 100 µM? I mean this compound: O=c1c(C2N=C(c3ccccc3)SS2)coc2cc(Cl)c(F)cc12 (stereo unspecified)
Output: 75%

Task: Can you share its inhibition of growth at 100 µM? I mean this compound: O=c1c(C2N=C(c3ccccc3)SS2)coc2cc(Cl)ccc12 (stereo unspecified)
Output: 91%

Task: Can you share its inhibition of growth at 100 µM? I mean this compound: O=c1c(C2N=C(c3ccccc3)SS2)coc2ccc(Cl)cc12 (stereo unspecified)
Output: 71%

Task: Can you share its inhibition of growth at 100 µM? I mean this compound: O=c1c(C2N=C(c3ccccc3)SS2)coc2cc(Cl)c(Cl)cc12 (stereo unspecified)
Output: 68%

Task: Can you share its inhibition of growth at 100 µM? I mean this compound: `O=c1c(C(=S)Nc2ccccc2)coc2cc(Cl)c(Cl)cc12`
Output: 2%

Task: Can you share its inhibition of growth at 100 µM? I mean this compound: `O=c1c(C(=S)Nc2ccccc2)coc2ccccc12`
Output: 58%

Task: Can you share its inhibition of growth at 100 µM? I mean this compound: `O=c1c(C(=S)Nc2ccccc2)coc2cc(Cl)ccc12`
Output: 47%

Task: Can you share its inhibition of growth at 100 µM? I mean this compound: O=c1c(C2N=C(c3ccccc3)SS2)coc2ccc(F)cc12 (stereo unspecified)
Output: 27%

Task: Can you share its inhibition of growth at 100 µM? I mean this compound: `O=c1c(C(=S)Nc2ccccc2)coc2ccc(F)cc12`
Output: 49%

* * *

Let's look at some molecules and their measured IC50.
test system: PC-3; assay: Growth inhibition of human PC3 cells after 48 hrs by sulforhodamine B assay; type: functional, cell-based; conditions: PC-3, 48 h
Express the result in µM but write the number alone.

Below, 5 molecules whose answers are already recorded.
>  <MOLECULE>
O=c1c(C2N=C(c3ccccc3)SS2)coc2ccc(Cl)cc12 (configuration not stated)

>  <IC50, µM>
52.7

$$$$
>  <MOLECULE>
O=c1c(C2N=C(c3ccccc3)SS2)coc2cc(Cl)c(Cl)cc12 (configuration not stated)

>  <IC50, µM>
60

$$$$
>  <MOLECULE>
O=c1c(C2N=C(c3ccccc3)SS2)coc2cc(Cl)ccc12 (configuration not stated)

>  <IC50, µM>
38.4

$$$$
>  <MOLECULE>
CO[C@@]12[C@H](COC(N)=O)C3=C(C(=O)C(C)=C(N)C3=O)N1C[C@@H]1N[C@@H]12 [MITOMYCIN]

>  <IC50, µM>
1.5

$$$$
>  <MOLECULE>
O=c1c(C(=S)Nc2ccccc2)coc2cc(Cl)c(Cl)cc12

>  <IC50, µM>
95.4

$$$$

Task: State its IC50 on PC-3: `O=c1c(C(=S)Nc2ccccc2)coc2cc(Cl)ccc12`
Output: 90.8

Task: State its IC50 on PC-3: O=c1c(C2N=C(c3ccccc3)SS2)coc2cc(Cl)c(F)cc12 (configuration not stated)
Output: 56.9

Task: State its IC50 on PC-3: `O=c1c(C(=S)Nc2ccccc2)coc2ccccc12`
Output: 60.6
